- Test system: UMC-11
- assay summary: relative viability (nuclei count vs DMSO), 5 days (fraction); higher = more cells survive
- particulars: first compound 0.01 µM
reported endpoint: relative viability
Kindly provide the number alone.

>  <compound>
NC(=O)Nc1cc(-c2cccc(F)c2)sc1C(=O)N[C@H]1CCCNC1 [AZD7762] + O=C(CCCCCCC(=O)Nc1ccccc1)NO [Vorinostat] (partner 1 µM)

>  <relative viability>
0.373

$$$$
>  <compound>
NC(=O)Nc1cc(-c2cccc(F)c2)sc1C(=O)N[C@H]1CCCNC1 [AZD7762] + Nc1ncn([C@H]2C[C@H](O)[C@@H](CO)O2)c(=O)n1 [Decitabine] (partner 2 µM)

>  <relative viability>
0.728

$$$$
>  <compound>
NC(=O)Nc1cc(-c2cccc(F)c2)sc1C(=O)N[C@H]1CCCNC1 [AZD7762] + COc1cc2c(Oc3ccc(NC(=O)C4(C(=O)Nc5ccc(F)cc5)CC4)cc3F)ccnc2cc1OCCCN1CCOCC1 [Foretinib] (partner 0.25 µM)

>  <relative viability>
1.04

$$$$
>  <compound>
NC(=O)Nc1cc(-c2cccc(F)c2)sc1C(=O)N[C@H]1CCCNC1 [AZD7762] + CS(=O)(=O)CCNCc1ccc(-c2ccc3ncnc(Nc4ccc(OCc5cccc(F)c5)c(Cl)c4)c3c2)o1 [Lapatinib] (partner 2 µM)

>  <relative viability>
0.936

$$$$
>  <compound>
NC(=O)Nc1cc(-c2cccc(F)c2)sc1C(=O)N[C@H]1CCCNC1 [AZD7762] + C[C@@H](Oc1cc(-c2cnn(C3CCNCC3)c2)cnc1N)c1c(Cl)ccc(F)c1Cl [Crizotinib] (partner 1 µM)

>  <relative viability>
0.713

$$$$
>  <compound>
NC(=O)Nc1cc(-c2cccc(F)c2)sc1C(=O)N[C@H]1CCCNC1 [AZD7762] + CC(C)C[C@H](NC(=O)[C@H](Cc1ccccc1)NC(=O)c1cnccn1)B(O)O [Bortezomib] (partner 0.002 µM)

>  <relative viability>
0.692

$$$$

Turning to the following compound.
Inquiry: Entry under review: NC(=O)Nc1cc(-c2cccc(F)c2)sc1C(=O)N[C@H]1CCCNC1 [AZD7762] + C[C@]1(O)C[C@@H](c2nc(-c3ccc4ccc(-c5ccccc5)nc4c3)c3c(N)nccn32)C1 [Linsitinib] (partner 1 µM) . Reported relative viability?
Reply text: 1.03
